# pKd per entry
molecular target: 3-oxoacyl-[acyl-carrier-protein] synthase 2 (Staphylococcus aureus, UniProt Q5TKS0, C165Q); assay: Binding affinity to Staphylococcus aureus FabF C165Q mutant expressed in Escherichia coli BL21 (DE3) PlysS cells by intrinsic tryptophan fluorescence quenching-based fluorimetric method
pKd: −log10 of the molar value.
Experimental endpoint: pKd

{"Molecule": "C=C/C(C)=C/[C@@]1(C)SC(=O)C(C(C)=O)=C1O", "Experimental endpoint": "pKd", "Recorded result": 4.92}
{"Molecule": "C=C/C(C)=C/[C@@]1(C)SC(=O)C(C(=O)CCCCCc2ccc(-c3ccccc3)cc2)=C1O", "Experimental endpoint": "pKd", "Recorded result": 4.48}
{"Molecule": "C=C/C(C)=C/[C@@]1(C)SC(=O)C(C)=C1O", "Experimental endpoint": "pKd", "Recorded result": 4.06}
{"Molecule": "C=C/C(C)=C/[C@@]1(C)SC(=O)C(C(=O)C(F)(F)F)=C1O", "Experimental endpoint": "pKd", "Recorded result": 4.25}

Sourced from ChEMBL document CHEMBL4425098
